system: UniProtKB P05121
Sequence (P05121 24-402): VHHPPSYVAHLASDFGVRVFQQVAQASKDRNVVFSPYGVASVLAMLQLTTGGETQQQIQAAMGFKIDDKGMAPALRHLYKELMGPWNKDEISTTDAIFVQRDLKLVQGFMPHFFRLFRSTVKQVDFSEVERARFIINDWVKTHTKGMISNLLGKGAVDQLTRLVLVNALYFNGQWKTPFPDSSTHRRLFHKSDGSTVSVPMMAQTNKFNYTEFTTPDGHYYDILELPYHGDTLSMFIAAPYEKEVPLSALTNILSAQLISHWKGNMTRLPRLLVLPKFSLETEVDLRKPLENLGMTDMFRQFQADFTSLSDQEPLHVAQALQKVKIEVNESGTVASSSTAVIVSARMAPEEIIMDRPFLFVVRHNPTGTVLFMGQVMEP
measurement notes: PAI-1 inhibition in the S2251 chromogenic substrate assay (PAI functional assay)
Assay type: biochemical
study conditions: 100 μM; Table 1, second part; read-out: INHIBITION OF PAI-1 (degree of inhibition)
property label: inhibition at 100 µM (%)
Write the answer as a number in %, unit excluded.

// fetch inhibition at 100 µM for `CC(=O)Nc1ccc(/C=c2\[nH]c(=O)/c(=C/c3ccc(OCCCN(C)C)cc3)[nH]c2=O)cc1` ; system: UniProtKB P05121 55

Give inhibition at 100 µM for O=c1[nH]/c(=C\c2ccc(OCC(O)CN3CCN(CCO)CC3)cc2)c(=O)[nH]/c1=C\c1ccccc1 (stereo not drawn) tested on UniProtKB P05121. 21

Write down measured inhibition at 100 µM (UniProtKB P05121) for this compound. O=c1[nH]/c(=C\c2ccc(OCC(O)Cn3ccnc3)cc2)c(=O)[nH]/c1=C\c1ccccc1 (stereo not drawn) 44

For UniProtKB P05121, give inhibition at 100 µM of the listed compound: `CN(C)CCOCc1ccc(/C=c2\[nH]c(=O)/c(=C/c3ccsc3)[nH]c2=O)cc1` 70

With UniProtKB P05121 as the test system, provide measured inhibition at 100 µM for this compound: CN(C)CC(O)COc1ccc(/C=c2\[nH]c(=O)/c(=C/c3ccccc3)[nH]c2=O)cc1 (stereo not drawn) 65

Quote inhibition at 100 µM with test system UniProtKB P05121 for `CN(C)CCCOc1ccc(/C=c2\[nH]c(=O)/c(=C/c3ccc(Cn4ccnc4)cc3)[nH]c2=O)cc1` 34

Provide inhibition at 100 µM, system UniProtKB P05121, entry `O=c1[nH]/c(=C\c2ccc(OCCn3ccnc3)cc2)c(=O)[nH]/c1=C\c1ccccc1` 69

Please respond with reported inhibition at 100 µM (system UniProtKB P05121) for O=c1[nH]/c(=C\c2ccc(OCC(O)CN3CCOCC3)cc2)c(=O)[nH]/c1=C\c1ccccc1 (stereo not drawn) . 0

Supply inhibition at 100 µM measured with UniProtKB P05121 for `CN(C)CCCOc1ccc(/C=c2\[nH]c(=O)/c(=C/c3ccco3)[nH]c2=O)cc1` . 1

Please report the measured inhibition at 100 µM for `CN(C)CC(=O)NCc1ccc(/C=c2\[nH]c(=O)/c(=C/c3ccoc3)[nH]c2=O)cc1` tested on UniProtKB P05121. 25

Name the value of inhibition at 100 µM reported for `CN(C)CCOCc1ccc(/C=c2\[nH]c(=O)/c(=C/c3ccoc3)[nH]c2=O)cc1` when tested on UniProtKB P05121. 34

Name the recorded inhibition at 100 µM of `CN(C)CCOc1ccc(/C=c2\[nH]c(=O)/c(=C/c3ccoc3)[nH]c2=O)cc1` , assay system UniProtKB P05121. 78

For UniProtKB P05121, give the measured inhibition at 100 µM of the entry `CN(C)CCCOc1ccc(/C=c2\[nH]c(=O)/c(=C/c3ccc4ccccc4c3)[nH]c2=O)cc1` 90

Using UniProtKB P05121 as the test system, report measured inhibition at 100 µM of `CN(C)CCOc1ccc(/C=c2\[nH]c(=O)/c(=C/c3ccsc3)[nH]c2=O)cc1` . 80

Would you please give the reported inhibition at 100 µM of `CN(C)CC(=O)NCc1ccc(/C=c2\[nH]c(=O)/c(=C/c3ccccc3Br)[nH]c2=O)cc1` with UniProtKB P05121? 44
